meta.source: PubChem BioAssay (NCI)

procedure.summary: NCI Yeast Anticancer Drug Screen. Data for the mec2-1 strain (AID 157)
test.conditions: S. cerevisiae mec2-1 strain, at 50.0 µM, hits give high values
Method: Growth inhibition of yeast strains with defined genetic alterations is measured as a screen for potential anti-cancer activity. Selected strains with alterations in DNA damage repair or cell cycle control were exposed to compounds and growth inhibition was measured relative to vehicle treated controls. The strain used in this assay is mec2-1
This is part of a sample that, as a whole, favours compounds with a hit. Of some 79,000 tested, about 15% had one in any assay.
measure: growth inhibition (%)
Just the number please, in %, no unit attached.

See these solved cases before continuing.
Oc1cc2oc3cc(O)c(O)cc3c2cc1O ... 10.4
Cc1ccc(-c2nnc(-c3cccc4ccccc34)o2)cc1 ... -31.9
CCCCNC(=S)/N=C/c1c(O)c2ccccc2[nH]c1=O ... -15.2

Moving on to the next molecule.
Req: Quick one: give measured growth inhibition for CN(C)S(=O)(=O)C1(c2ccccc2)CCCC1
Resp: 9.85

---

procedure.summary: NCI Yeast Anticancer Drug Screen. Data for the bub3 strain (AID 167)
test.conditions: S. cerevisiae bub3 mutant strain, at 50.0 µM, hits give high values
The panel holds about 79,000 compounds, 15% with a hit somewhere; the sample as a whole holds those more often. Activity calls are given as the source filed them. Cut-off read from the data, not from the text of the source: active = growth inhibition above about 70%; inactive = the rest. Where a SMILES comes first, the peptide text is derived from it. [ ]: non-standard residue; d: D form. The star is where a group is joined. ξ: configuration not given here. ξF = NC(Cc1ccccc1)C(=O)O; Cbz = O=C(OCc1ccccc1)*
measure: growth inhibition

Known growth inhibition results, listed for orientation:
COC(=O)CCNC(C(=O)O)C(C)(C)SCCC(=O)OC (configuration not stated) ... 24.5% (inactive)
OCC1NC(CO)C(O)C1O (configuration not stated) ... 9.2% (inactive)
O=c1[nH]c2c(Cl)cccc2c2ccccc12 ... -17.9% (inactive)
COC(=O)CC1(O)C=CC(=O)c2ccccc21 (configuration not stated) ... 44% (inactive)
CCOC(=O)CNC(=O)C(Cc1ccccc1)NC(=O)OCc1ccccc1 (configuration not stated) (Cbz-[ξF]-Gly-OEt) ... -3.6% (inactive)

Turning to the following compound.
Req: Give the value of growth inhibition reported for the following: Cc1ccc(I)c(C)c1
Resp: -1.15% (inactive)

---

procedure.summary: NCI Yeast Anticancer Drug Screen. Data for the mlh1 rad18 strain (AID 175)
test.conditions: S. cerevisiae mlh1 rad18 strain growth inhibition; at 50.0 µM; hits give high values
The panel holds about 79,000 compounds, 15% with a hit somewhere; the sample as a whole holds those more often.
# growth inhibition listing for each entry below
Please state the figure in %; there is no need to write the unit.

Req: # return recorded growth inhibition for entry Cc1ccc(/C=N/NC2=NCCN2)s1
Resp: 9.75

Req: Respond only with growth inhibition recorded for C=CN1C(=O)NC(C)(CC(C)C)C1=O (stereo unspecified)
Resp: 18.4

Req: // fetch growth inhibition given entry CCOC(=O)/C(=C/c1cn(C(C)=O)c2ccccc12)P(=O)(OC)OC
Resp: -15.8

Req: Please supply the value of reported growth inhibition for the item CCOC(=O)c1c[nH]c2nc(N)ccc2c1=O
Resp: -5.4

Req: Note growth inhibition for the molecule shown: N#CCSc1c(-c2ccccc2)c(=O)n(-c2ccccc2)c(=S)n1-c1ccccc1
Resp: -0.65

Req: Specify measured growth inhibition for CC(C)N1CC2CC(CN(C(=O)c3ccc(Cl)cc3)C2)C1 .
Resp: -5.9
